target: human PD-1 (wild-type), expressed on cells (human, UniProt Q15116 25-288); assay: cell-based or functional assay
Sequence (Q15116 25-288 limits assumed): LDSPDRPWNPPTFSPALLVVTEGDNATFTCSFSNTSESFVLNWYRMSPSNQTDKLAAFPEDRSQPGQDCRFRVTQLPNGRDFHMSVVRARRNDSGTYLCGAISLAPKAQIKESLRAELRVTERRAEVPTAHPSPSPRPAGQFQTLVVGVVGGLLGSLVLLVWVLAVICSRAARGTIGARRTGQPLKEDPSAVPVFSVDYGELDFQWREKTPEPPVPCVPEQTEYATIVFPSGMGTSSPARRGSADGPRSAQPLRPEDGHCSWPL

[
  {
    "BINDER": "HM297-I6 (antibody, human IgG1, V domains shown, also called humanized HM297, VH ver.I / VL ver.6) VH: QVQLVQSGPEVKKPGASVKVVCKASGYTFTDYNVDWVRQVPGQGLEWMGDIDPNNGGTIYNQKFKDRVTMTVDTSTRTAYMELRSLRSDDTAVYYCARWRGAMDYWGQGTLVTVSS VL: DIQMTQSPSSLSASVGDRVTITCRASQDIDNYLKWYQQKPGKAPKLLIYDTSRLHSGVPSRFSGSGSGTDYTLTISSLQPEDFATYYCQQGYTLPWTFGQGTKLEIK",
    "QUANTITY UNIT": "ng/mL",
    "Cell-cell contact assay": 137
  },
  {
    "BINDER": "HM297-I4 (antibody, human IgG1, V domains shown, also called humanized HM297, VH ver.I / VL ver.4) VH: QVQLVQSGPEVKKPGASVKVVCKASGYTFTDYNVDWVRQVPGQGLEWMGDIDPNNGGTIYNQKFKDRVTMTVDTSTRTAYMELRSLRSDDTAVYYCARWRGAMDYWGQGTLVTVSS VL: DIQMTQTTSSLSASVGDRVTITCRASQDIDNYLKWYQQKPDGTVKLLIYDTSRLHSGVPSRFSGSGSGTDYTLTISSLKQEDFATYYCQQGYTLPWTFGQGTKLEIK",
    "QUANTITY UNIT": "ng/mL",
    "Cell-cell contact assay": 65.6
  },
  {
    "BINDER": "HM297-E4 (antibody, human IgG1, V domains shown, also called humanized HM297, VH ver.E / VL ver.4) VH: QVQLVQSGPELVKPGASVKIPCKASGYTFTDYNVDWVRQSHGKSLEWIGDIDPNNGGTIYNQKFKDKATLTVDKSTRTAYMELRSLRSDDTAVYYCARWRGAMDYWGQGTLVTVSS VL: DIQMTQTTSSLSASVGDRVTITCRASQDIDNYLKWYQQKPDGTVKLLIYDTSRLHSGVPSRFSGSGSGTDYTLTISSLKQEDFATYYCQQGYTLPWTFGQGTKLEIK",
    "QUANTITY UNIT": "ng/mL",
    "Cell-cell contact assay": 100
  }
]
